Where do these numbers come from? They come from paper PMC8230370.

This listing pairs compounds with measured log10(IC50).
# Tested on: HepG2 (liver) cancer cells
# Assay remarks: MTT antiproliferative assay, HepG2 liver carcinoma
# Format: cell-based, human
# Measurement conditions: Homo sapiens, HepG2, 48 h, 48 h incubation, read-out: IC50 for the Different Carcinoma Cell Lines, HepG2 (Liver)
In our notation, the value equals log10 of IC50 in µM.

Please review the entries below; each comes with its answer.
* CC(=O)OCc1cc(=O)occ1O [Compound 4] | 2.10
* O=c1cc(CO)c(O)co1 [Compound 3] | 2.34
* O=Cc1ccc(O)cc1 [Compound 5, 4-hydroxybenzaldehyde] | 2.39

Ask: Supply measured log10(IC50) of COc1cccc2c1C(=O)c1c(O)c3c(c(O)c1C2=O)C[C@@](O)(C(=O)CO)C[C@@H]3O[C@H]1C[C@H](N)[C@H](O)[C@H](C)O1 [Doxorubicin, doxorubicin, reference compound] in your reply.
Reply: 0.34

Ask: Supply measured log10(IC50) of Cc1c2c(cc3c1CCOC3=O)C[C@](C)(CO)C2 [Compound 2, echinolactone D] in your reply.
Reply: 2.17

* * *

# Tested on: A549 (lung) cancer cells
# Assay remarks: MTT antiproliferative assay, A549 lung carcinoma
# Type: cell-based, human
# Measurement conditions: Homo sapiens, A549, 48 h, 48 h incubation, read-out: IC50 for the Different Carcinoma Cell Lines, A549 (Lung)
Endpoint label: IC50 (µM)
Use µM as the unit, but write only the number.

• CC(=O)OCc1cc(=O)occ1O = 89.4
• O=c1cc(CO)c(O)co1 = 208
• Cc1c2c(cc3c1CCOC3=O)C[C@](C)(CO)C2 = 55.7
• O=Cc1ccc(O)cc1 [Compound 5, 4-hydroxybenzaldehyde] = 97.5

From here, focus on the item given below.
Ask: Supply measured IC50 of COc1cccc2c1C(=O)c1c(O)c3c(c(O)c1C2=O)C[C@@](O)(C(=O)CO)C[C@@H]3O[C@H]1C[C@H](N)[C@H](O)[C@H](C)O1 [Doxorubicin, doxorubicin, reference compound] in your reply.
Reply: 2.1

* * *

# Test system: MCF-7 (breast) cancer cells
# Assay remarks: MTT antiproliferative assay, MCF-7 breast carcinoma
# Assay type: cell-based, human
# Measurement conditions: 48 h incubation, MCF-7 cells, read-out: IC50 for the Different Carcinoma Cell Lines, MCF-7 (Breast)
Endpoint label: pIC50
Recall that pIC50 is obtained by taking minus log10 of the concentration measured in molar.

Ask: Output reported pIC50 of the compound Cc1c2c(cc3c1[C@@H](O)COC3=O)CC(C)(C)C2 on MCF-7 (breast) cancer cells.
Reply: 3.97

* * *

# Test system: MCF-7 (breast) cancer cells
# Assay remarks: MTT antiproliferative assay, MCF-7 breast carcinoma
# Type: cell-based, human
# Measurement conditions: Homo sapiens, MCF7, 48 h, 48 h incubation, MCF-7 cells, read-out: IC50 for the Different Carcinoma Cell Lines, MCF-7 (Breast)
This listing pairs molecules with measured pIC50.
Recall that pIC50 is obtained by taking minus log10 of the concentration measured in molar.

Please review the entries below; each comes with its answer.
- COc1cccc2c1C(=O)c1c(O)c3c(c(O)c1C2=O)C[C@@](O)(C(=O)CO)C[C@@H]3O[C@H]1C[C@H](N)[C@H](O)[C@H](C)O1 [Doxorubicin, doxorubicin, reference compound]: 5.72
- CC(=O)OCc1cc(=O)occ1O: 3.77
- Cc1c2c(cc3c1CCOC3=O)C[C@](C)(CO)C2: 3.89

Ask: Output reported pIC50 of the molecule O=Cc1ccc(O)cc1 [Compound 5, 4-hydroxybenzaldehyde] on MCF-7 (breast) cancer cells.
Reply: 3.80

Ask: Output reported pIC50 of the molecule O=c1cc(CO)c(O)co1 on MCF-7 (breast) cancer cells.
Reply: 3.65
